biological target: T1, RRPPGFSPFR-biotin (mouse); experiment: Biacore, biotin-peptide on SA chip;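 note: purified antibodies injected as twofold dilutions from 0.1 to 10 nM in HBS-EP over streptavidin-captured biotinylated BKR1 or BKR2 ligand peptides, with a random-peptide flow cell as reference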
T1 construct: also called KLP-b; KLP-biotin
T1 peptide: RRPPGFSPFR-biotin
Ends that are not written are not given here.
Readout name: koff (s⁻¹)
State the answer as a number, implicitly in s⁻¹.

IN: Give the measured koff of humanized F151 variant HC2b/LC2a (antibody, human IgG1, V domains shown, also called LC2axHC2b) VH: QIQLVQSGAEVKKPGASVKVSCKASGYSFTDYNIYWVKQSPGKGLEWIGYFDPYNGNTGYNEKFRGKATLTVDKSSSTAYMHLSSLTSEESAVYYCANYYRYDDHAMDYWGQGTSVTVSS VL: DIVMTQSPSSLSASVGDRVTISCKSSQSLLYSSNQKNYLAWYQQKPGKSPKPLIYWASTRESGVPDRFSGSGSGTDFTLTISSVQAEDLATYYCQQYYSYPWTFGGGTKLEIK .
OUT: 2.2e-06

IN: Give the measured koff of humanized F151 variant HC1/LC1 (antibody, V domains shown, also called LC1xHC1) VH: EIQLVQSGPEVKKPGASVKVSCKASGYSFTDYNIYWVKQSPGKSLEWIGYFDPYNGNTGYNQKFRGKATLTVDKSSSTAFMHLSSLTSEDSAVYYCANYYRYDDHAMDYWGQGTSVTVSS VL: DIVMSQSPSSLAASVGDRVTMSCKSSQSLLYSSNQKNYLAWYQQKPGKSPKPLIYWASTRESGVPDRFTGSGSGTDFTLTISSVQAEDLAIYYCQQYYSYPWTFGGGTKLEIK .
OUT: 2.67e-06

IN: Give the measured koff of humanized F151 variant HC2c/LC2b (antibody, human IgG1, V domains shown, also called LC2bxHC2c) VH: QIQLVQSGAEVKKPGASVKVSCKASGYSFTDYNIYWVKQSPGKGLEWIGYFDPYNGNTGYNQKFRGKATLTVDKSSSTAYMHLSSKTSEESAVYYCANYYRYDDHAMDYWGQGTSVTVSS VL: DIVMTQSPSSLSASVGDRVTISCKSSQSLLYSSNQKNYLAWYQQKPGKSPKPLIYWASTRESGVPDRFSGSGSGTDFTLTISSVQAEDKATYYCQQYYSYPWTFGGGTKLEIK .
OUT: 1.02e-05

IN: Give the measured koff of humanized F151 variant HC2a/LC2a (antibody, human IgG1, V domains shown, also called LC2axHC2a) VH: QIQLVQSGAEVKKPGASVKVSCKASGYSFTDYNIYWVKQSPGKGLEWIGYFDPYNGNTGYNQKFRGKATLTVDKSSSTAYMHLSSLTSEESAVYYCANYYRYDDHAMDYWGQGTSVTVSS VL: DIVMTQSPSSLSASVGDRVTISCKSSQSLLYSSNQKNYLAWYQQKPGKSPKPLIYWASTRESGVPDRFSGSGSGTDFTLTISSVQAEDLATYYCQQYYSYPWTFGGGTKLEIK .
OUT: 2.68e-05

Cited source: patent US20230399388A1
